system: HCT-15 colon; assay: NCI tumour cell line growth inhibition, 48 h; in the data active means GI50 below about 0.43 µM; inactive means the rest
Outcome codes: true = active, false = inactive

INSERT INTO assay_data (entry_smiles, assigned_category) VALUES
  ('O=c1c2cc(F)ccc2sc2c(NCCCNCCO)nc3ccccc3c12', 'false'),
  ('C/C(=N\O)c1cccc(Nc2cc(-n3ccnc3)c3ccccc3n2)c1', 'false'),
  ('O=Nc1c(-c2c(O)[nH]c3ncccc23)[nH]c2ccccc12', 'false'),
  ('COc1ccc(/C=C(\C)[N+](=O)[O-])cc1OC', 'false'),
  ('Oc1cccc2c1NCCC2', 'true'),
  ('O=C(CN1N=C(c2ccc(F)cc2)CCC1=O)Nc1nc2ccccc2s1', 'false');

----------
system: PC-3 prostate; assay: NCI tumour cell line growth inhibition, 48 h
readout: GI50

INSERT INTO assay_data (compound, system_tested, readout, reported_value) VALUES
  ('COc1cc2cc(Oc3ccc(NC(=O)c4ccc(Cl)c(Cl)c4)cc3)c(C)nc2cc1OC', 'PC-3 prostate', 'GI50', '4.77 µM'),
  ('Cc1cc(C)c(C2CNCc3cc4c(cc32)CNCC4c2c(C)cc(C)cc2C)c(C)c1 (stereo not given)', 'PC-3 prostate', 'GI50', '5.67 µg/mL'),
  ('COc1ccc(/C=C(\C)[N+](=O)[O-])cc1OC', 'PC-3 prostate', 'GI50', '2.75 µM'),
  ('C[C@@H]1Cc2cc(O)ccc2[C@H]2CC[C@]3(C)/C(=C/COCCN(C)C)CC[C@H]3[C@H]12 (tested in a mixture with another compound)', 'PC-3 prostate', 'GI50', '0.233 µM'),
  ('O=Nc1c(-c2c(O)[nH]c3ncccc23)[nH]c2ccccc12', 'PC-3 prostate', 'GI50', '> 26.1 µM'),
  ('C=C1[C@@H](O)O[C@H]2[C@H]1C[C@H](OC(C)=O)[C@]13C(=O)O[C@H]4C[C@](C)(O)[C@H]([C@H]41)C31C=C(C)[C@]2(O)O1', 'PC-3 prostate', 'GI50', '53.3 µM'),
  ('COc1cc2c(cc1F)C(c1ccccc1Cl)=Nc1c(n[nH]c1C)N2', 'PC-3 prostate', 'GI50', '12.3 µM'),
  ('C[C@@H]1O[C@@H](O[C@@H]2[C@@H](O)[C@H](OCCc3ccc(O)c(O)c3)O[C@H](CO)[C@H]2OC(=O)/C=C/c2ccc(O)c(O)c2)[C@H](O)[C@H](OC2OC[C@](O)(CO)[C@H]2O)[C@H]1O (stereo not given in full)', 'PC-3 prostate', 'GI50', '7.41 µM'),
  ('O=C(Nc1ccccc1OC(=O)c1ccccc1)c1ccccc1', 'PC-3 prostate', 'GI50', '6.11 µM'),
  ('C[n+]1c2ccccc2nc2c(N)cc(N)cc21', 'PC-3 prostate', 'GI50', '21.3 µM'),
  ('CC1C=CC(OC(=O)C(C)(O)CCC(O)(C(=O)OC2CC(O)C(C(C)C)CC2(C)O)C(C)C)(C(C)C)CC1 (stereo not given)', 'PC-3 prostate', 'GI50', '0.676 µM'),
  ('c1cc(N2CCN(c3ccc(C4=NCCCN4)cc3)CC2)ccc1C1=NCCCN1', 'PC-3 prostate', 'GI50', '> 52.7 µM'),
  ('Fc1ccc(/C=N/n2c(-c3ccc(F)c(Cl)c3)n[nH]c2=S)cc1', 'PC-3 prostate', 'GI50', '27.3 µM'),
  ('Cc1ccc(C2C3Cc4ccccc4C3=NN2c2ccc(S(=O)(=O)/N=c3\scc(-c4ccccc4)n3-c3ccccc3)cc2)cc1 (stereo not given)', 'PC-3 prostate', 'GI50', '21.3 µM'),
  ('C=CCc1cc(Nc2c3ccc(Cl)cc3nc3ccc(OC)cc23)cc(CN(CC)CC)c1O', 'PC-3 prostate', 'GI50', '1.04 µM'),
  ('CSc1ccc(C2=NN(C(C)=O)C(c3ccc(-c4ccc(Cl)cc4)o3)C2)cc1 (stereo not given)', 'PC-3 prostate', 'GI50', '20.1 µM'),
  ('COc1cccc(Oc2ccccc2NC(=O)CNC(=O)c2cccc3ccccc23)c1', 'PC-3 prostate', 'GI50', '0.284 µM'),
  ('FC(F)(F)c1cccc(-c2nn3ncccc3c2-c2ccnc(Nc3ccc4c(c3)OCCO4)n2)c1', 'PC-3 prostate', 'GI50', '10.5 µM'),
  ('COc1ccc(Nc2ccnc(N3CCN(c4ccnc5cc(Cl)ccc45)CC3)n2)cc1', 'PC-3 prostate', 'GI50', '0.705 µM'),
  ('Oc1cccc2c1NCCC2', 'PC-3 prostate', 'GI50', '0.119 µM');

----------
system: A549 NSCLC; experiment: NCI tumour cell line growth inhibition, 48 h; in the data active = GI50 below about 0.43 µM; inactive = the rest
Outcomes: 1 (yes) (active), 0 (no) (inactive)

INSERT INTO assay_data (compound, system_tested, assigned_category) VALUES
  ('C=C1[C@@H](O)O[C@H]2[C@H]1C[C@H](OC(C)=O)[C@]13C(=O)O[C@H]4C[C@](C)(O)[C@H]([C@H]41)C31C=C(C)[C@]2(O)O1', 'A549 NSCLC', '0 (no)'),
  ('FC(F)(F)c1cccc(-c2nn3ncccc3c2-c2ccnc(Nc3ccc4c(c3)OCCO4)n2)c1', 'A549 NSCLC', '0 (no)'),
  ('CN1CCN(CCCCCN=c2cc3c(=O)n(CCCCCN4CCN(C)CC4)c(=O)c4c(NCCCCCN5CCN(C)CC5)cc5c(O)n(CCCCCN6CCN(C)CC6)c(=O)c2c5c4-3)CC1', 'A549 NSCLC', '0 (no)'),
  ('COc1cccc(Oc2ccccc2NC(=O)CNC(=O)c2cccc3ccccc23)c1', 'A549 NSCLC', '1 (yes)'),
  ('C[CH2][Hg][S]c1ccccc1C(=O)O', 'A549 NSCLC', '0 (no)'),
  ('CCN1C(=O)N(CC)C2C1NN=c1s/c(=C\c3ccc(F)cc3)c(=O)n12 (stereo not given)', 'A549 NSCLC', '1 (yes)'),
  ('CN1CCc2nc3sc(C(N)=O)c(N)c3c(-c3cccs3)c2C1', 'A549 NSCLC', '0 (no)'),
  ('C[n+]1c2ccccc2nc2c(N)cc(N)cc21', 'A549 NSCLC', '0 (no)'),
  ('Nc1n[nH]c2ccc([C@@H]3Nc4cc5c(cc4[C@H]4C6CCC(C6)[C@@H]34)C(=O)NC5)cc12 (stereo not given in full)', 'A549 NSCLC', '0 (no)'),
  ('O=C1C(OCCOc2ccccc2)=C(OCCOc2ccccc2)C(=O)c2ccccc21', 'A549 NSCLC', '0 (no)');

----------
system: HOP-18 NSCLC; assay: NCI tumour cell line growth inhibition, 48 h
readout: TGI

INSERT INTO assay_data (compound, reported_value) VALUES
  ('COc1ccc(-c2[nH]c3ccccc3c2CCNS(=O)(=O)c2ccc(C)cc2)cc1', '> 10 µM'),
  ('N#CC1(C#N)C(c2ccccc2)C=CC12OCCCO2 (centres undefined)', '> 100 µM'),
  ('O=C1CCCC/C1=C\c1ccc(Cl)c(Cl)c1', '51.7 µM'),
  ('N#CNc1nc(N)c(-c2ccc(Cl)cc2)c(C(=O)Nc2nccs2)n1', '> 100 µM'),
  ('CN1CCN(P2(=S)Oc3ccc4ccccc4c3-c3c(ccc4ccccc34)O2)CC1', '> 100 µM'),
  ('CCOc1ccc(NC(=O)CCc2nnc(SC)o2)cc1', '> 100 µM'),
  ('Cc1cc2c(c(C(N)=O)c1C)-c1cc(Cl)cc(Cl)c1C2=O', '> 100 µM'),
  ('O=NN(CCF)C(=O)NC1CCSCC1', '> 100 µM'),
  ('Cc1ccccc1-n1c(N)c(-c2nc3ccccc3[nH]2)sc1=S', '72.8 µM');

----------
test system: HCC-2998 colon; test: NCI tumour cell line growth inhibition, 48 h; in the data active means GI50 below about 0.43 µM; inactive means the rest
Labels: active, inactive

INSERT INTO assay_data (compound, system_tested, assigned_category) VALUES
  ('O=c1c2cc(F)ccc2sc2c(NCCCNCCO)nc3ccccc3c12', 'HCC-2998 colon', 'inactive'),
  ('CCN1C(=O)N(CC)C2C1NN=c1s/c(=C\c3ccc(F)cc3)c(=O)n12 (centres undefined)', 'HCC-2998 colon', 'active'),
  ('COc1cccc(Oc2ccccc2NC(=O)CNC(=O)c2cccc3ccccc23)c1', 'HCC-2998 colon', 'inactive'),
  ('COc1ccc2c(-c3ccnc(Nc4cccc(OC(F)(F)F)c4)n3)cnn2n1', 'HCC-2998 colon', 'inactive'),
  ('Cc1[nH]c(-c2cc(N)ccc2Cl)c2c1C(=O)CCCC2', 'HCC-2998 colon', 'inactive'),
  ('Oc1c(-c2cc(C(F)(F)F)[nH]n2)cc(Cl)c(OCc2ccc(Cl)cc2)c1-c1ccc(Cl)c(C(F)(F)F)c1', 'HCC-2998 colon', 'inactive'),
  ('CC1C=CC(OC(=O)C(C)(O)CCC(O)(C(=O)OC2CC(O)C(C(C)C)CC2(C)O)C(C)C)(C(C)C)CC1 (centres undefined)', 'HCC-2998 colon', 'inactive'),
  ('COc1ccc(/C=C(\C)[N+](=O)[O-])cc1OC', 'HCC-2998 colon', 'inactive'),
  ('CN1CCN(CCCCCN=c2cc3c(=O)n(CCCCCN4CCN(C)CC4)c(=O)c4c(NCCCCCN5CCN(C)CC5)cc5c(O)n(CCCCCN6CCN(C)CC6)c(=O)c2c5c4-3)CC1', 'HCC-2998 colon', 'inactive');

Provenance of the data: PubChem BioAssay (NCI)
